Values from ChEMBL document CHEMBL5247677

tested.system: Sodium channel protein type 1 subunit alpha/beta-1/beta-2 (Homo sapiens, UniProt P35498)
experiment.description: Inhibition of human Nav1.1/beta1/2 transfected in HEK293-A cells assessed as inhibition of channel current incubated for 5.5 mins by high-throughput electrophysiology system analysis
IC50 values, listed per item
# unit: µM | format: bare number

> print(dat)
                                 smiles.str  unit.annotation  obs.value
1  Cc1cn(-c2ccccc2)c2ccc(C(=O)NS(C)(=O)=O)cc12               µM         80
2  COc1cccc(-n2cc(C)c3cc(C(=O)NS(C)(=O)=O)ccc32)c1               µM         79
3  Cc1cn(-c2cncc(Cl)c2)c2ccc(C(=O)NS(=O)(=O)C3CC3)cc12               µM        9.9

For the compound shown here, Cc1cccc(-n2cc(C)c3cc(C(=O)NS(C)(=O)=O)ccc32)c1 , give the reported IC50.
39

What do you have for Cc1cn(-c2cccc(F)c2)c2ccc(C(=O)NS(C)(=O)=O)cc12 ?
12

Let us now turn to Cc1cn(-c2ccc(F)cc2)c2ccc(C(=O)NS(C)(=O)=O)cc12
52

Same read-out for Cc1cn(-c2cncc(C(F)(F)F)c2)c2cc(F)c(C(=O)NS(=O)(=O)C3CC3)cc12 ?
1.2

Cool, now CS(=O)(=O)NC(=O)c1cc(Cl)c(Oc2cnc(C3CC3)c(Cl)c2)cc1F
22

One more compound: Cc1cn(-c2cccc(Cl)c2)c2ccc(C(=O)NS(C)(=O)=O)cc12
20

Another compound: Cc1cn(-c2cccc(C(F)(F)F)c2)c2ccc(C(=O)NS(C)(=O)=O)cc12
20

Okay, and Cc1cn(-c2cncc(C(F)(F)F)c2)c2ccc(C(=O)NS(=O)(=O)C3CC3)cc12 ?
6.6

What do you get for Cc1cn(-c2cccc(F)c2)c2ccc(C(=O)NS(=O)(=O)C3CC3)cc12 ?
4.8

* * *

compounds and their reported half-life
experiment.description: Half life in ddY mouse at 1 mg/kg, po by LC-MS/MS analysis
Type: ADME, organism-based
protocol.conditions: in vivo
Answer by giving the amount and then stating its unit.

Consider the following illustrative entries.
> print(dat)
                                 smiles.str  obs.value
1  Cc1cn(-c2cccc(F)c2)c2ccc(C(=O)NS(=O)(=O)C3CC3)cc12        5 h
2  Cc1cn(-c2cncc(C(F)(F)F)c2)c2ccc(C(=O)NS(=O)(=O)C3CC3)cc12       17 h

Alright, here's another compound for you.
I would be grateful if you could share the reported half-life for Cc1cn(-c2cncc(C(F)(F)F)c2)c2cc(F)c(C(=O)NS(=O)(=O)C3CC3)cc12 .
13.5 h

* * *

tested.system: Sodium channel protein type 9 subunit alpha/beta-1/beta-2 (Mus musculus, UniProt Q62205)
experiment.description: Inhibition of mouse Nav1.7/beta1/2 transfected in HEK293-A cells assessed as inhibition of channel current incubated for 5.5 mins by high-throughput electrophysiology system analysis
reported.property: IC50

> print(dat)
                                 smiles.str                             tested.system  reported.property  obs.value
1  Cc1cn(-c2cccc(Cl)c2)c2ccc(C(=O)NS(C)(=O)=O)cc12  Sodium channel protein type 9 subunit alpha/beta-1/beta-2 (Mus musculus, UniProt Q62205)               IC50     1.7 µM
2  Cc1cn(-c2cccc(F)c2)c2ccc(C(=O)NS(C)(=O)=O)cc12  Sodium channel protein type 9 subunit alpha/beta-1/beta-2 (Mus musculus, UniProt Q62205)               IC50     0.9 µM
3  Cc1cn(-c2ccccc2F)c2ccc(C(=O)NS(C)(=O)=O)cc12  Sodium channel protein type 9 subunit alpha/beta-1/beta-2 (Mus musculus, UniProt Q62205)               IC50      12 µM
4  CS(=O)(=O)NC(=O)c1ccc2c(ccn2-c2ccccc2)c1  Sodium channel protein type 9 subunit alpha/beta-1/beta-2 (Mus musculus, UniProt Q62205)               IC50    > 10 µM
5  CS(=O)(=O)NC(=O)c1ccc2c(ccn2Cc2ccccc2)c1  Sodium channel protein type 9 subunit alpha/beta-1/beta-2 (Mus musculus, UniProt Q62205)               IC50    > 10 µM
6  Cc1cn(-c2cncc(Cl)c2)c2ccc(C(=O)NS(=O)(=O)C3CC3)cc12  Sodium channel protein type 9 subunit alpha/beta-1/beta-2 (Mus musculus, UniProt Q62205)               IC50    0.46 µM

Fill blank: measured IC50 of the molecule CS(=O)(=O)NC(=O)c1ccc2[nH]cc(-c3ccccc3)c2c1 is ____.
> 10 µM

Also need Cc1cn(-c2cccc(F)c2)c2cc(F)c(C(=O)NS(C)(=O)=O)cc12 , thanks.
0.98 µM

And for Cc1cn(-c2ccc(Cl)cc2)c2ccc(C(=O)NS(C)(=O)=O)cc12 ?
7.9 µM

Same question for Cc1cn(-c2cncc(F)c2)c2ccc(C(=O)NS(=O)(=O)C3CC3)cc12 please.
2.7 µM

Follow-up item: Cc1cn(-c2ccccc2)c2ccc(C(=O)NS(C)(=O)=O)cc12
2.7 µM

Ok, now Cc1cn(-c2ccc(F)cc2)c2ccc(C(=O)NS(C)(=O)=O)cc12
2.8 µM

Query Cn1cc(-c2ccccc2)c2cc(C(=O)NS(C)(=O)=O)ccc21 next
> 10 µM

* * *

tested.system: Sodium channel protein type 9 subunit alpha/beta-1/beta-2 (Homo sapiens, UniProt Q15858)
Sequence (Q15858 whole entry): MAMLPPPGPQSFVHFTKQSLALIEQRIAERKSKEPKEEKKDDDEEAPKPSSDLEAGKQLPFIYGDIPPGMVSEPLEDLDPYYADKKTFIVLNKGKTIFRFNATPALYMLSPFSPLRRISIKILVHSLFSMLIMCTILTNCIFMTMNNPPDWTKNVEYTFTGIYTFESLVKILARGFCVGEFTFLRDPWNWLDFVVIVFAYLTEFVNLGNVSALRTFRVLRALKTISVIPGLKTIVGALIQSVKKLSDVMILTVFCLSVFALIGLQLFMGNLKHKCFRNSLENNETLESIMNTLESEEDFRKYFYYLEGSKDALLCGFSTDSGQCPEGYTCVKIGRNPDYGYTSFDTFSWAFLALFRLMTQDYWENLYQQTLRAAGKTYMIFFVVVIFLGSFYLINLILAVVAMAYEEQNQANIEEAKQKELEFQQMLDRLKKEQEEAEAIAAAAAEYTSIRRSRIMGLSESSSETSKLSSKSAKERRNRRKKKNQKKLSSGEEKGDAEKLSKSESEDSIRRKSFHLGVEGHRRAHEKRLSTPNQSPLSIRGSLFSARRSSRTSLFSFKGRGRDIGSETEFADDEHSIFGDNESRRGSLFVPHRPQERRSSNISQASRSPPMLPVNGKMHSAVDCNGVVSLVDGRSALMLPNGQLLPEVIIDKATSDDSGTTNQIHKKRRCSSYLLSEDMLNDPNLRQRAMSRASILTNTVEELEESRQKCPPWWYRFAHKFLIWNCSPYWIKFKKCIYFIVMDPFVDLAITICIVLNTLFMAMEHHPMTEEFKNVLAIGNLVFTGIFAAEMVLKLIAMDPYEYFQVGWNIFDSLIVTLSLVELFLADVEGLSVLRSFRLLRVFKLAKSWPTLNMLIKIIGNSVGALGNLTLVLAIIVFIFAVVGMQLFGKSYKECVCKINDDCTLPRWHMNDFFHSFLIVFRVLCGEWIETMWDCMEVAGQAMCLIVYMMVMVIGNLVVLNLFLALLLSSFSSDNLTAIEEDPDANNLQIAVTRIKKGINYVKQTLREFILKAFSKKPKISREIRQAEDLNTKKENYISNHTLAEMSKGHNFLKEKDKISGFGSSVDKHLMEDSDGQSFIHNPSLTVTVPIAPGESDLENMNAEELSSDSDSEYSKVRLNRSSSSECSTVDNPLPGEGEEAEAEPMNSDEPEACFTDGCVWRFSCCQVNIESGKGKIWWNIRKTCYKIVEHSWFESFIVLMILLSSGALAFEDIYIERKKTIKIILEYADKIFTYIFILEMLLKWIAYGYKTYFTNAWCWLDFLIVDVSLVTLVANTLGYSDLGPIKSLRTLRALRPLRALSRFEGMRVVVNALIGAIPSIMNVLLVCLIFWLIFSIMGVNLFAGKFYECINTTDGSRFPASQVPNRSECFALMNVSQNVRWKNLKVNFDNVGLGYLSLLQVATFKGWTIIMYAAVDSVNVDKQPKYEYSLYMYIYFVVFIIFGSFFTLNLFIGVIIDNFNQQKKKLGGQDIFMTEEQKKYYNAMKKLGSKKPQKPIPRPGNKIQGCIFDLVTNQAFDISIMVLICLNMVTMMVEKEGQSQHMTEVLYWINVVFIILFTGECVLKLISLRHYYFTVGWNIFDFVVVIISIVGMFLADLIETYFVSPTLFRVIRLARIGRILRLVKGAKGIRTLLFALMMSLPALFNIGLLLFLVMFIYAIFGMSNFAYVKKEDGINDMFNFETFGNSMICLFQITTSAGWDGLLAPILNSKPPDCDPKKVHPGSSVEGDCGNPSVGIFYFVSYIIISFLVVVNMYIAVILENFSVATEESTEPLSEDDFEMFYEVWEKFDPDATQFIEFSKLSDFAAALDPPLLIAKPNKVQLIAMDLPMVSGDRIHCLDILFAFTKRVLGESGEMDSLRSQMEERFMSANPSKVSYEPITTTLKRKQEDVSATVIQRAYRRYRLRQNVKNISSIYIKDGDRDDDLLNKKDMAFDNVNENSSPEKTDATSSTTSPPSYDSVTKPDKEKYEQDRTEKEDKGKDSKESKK
Sequence (O60939 whole entry, further chain): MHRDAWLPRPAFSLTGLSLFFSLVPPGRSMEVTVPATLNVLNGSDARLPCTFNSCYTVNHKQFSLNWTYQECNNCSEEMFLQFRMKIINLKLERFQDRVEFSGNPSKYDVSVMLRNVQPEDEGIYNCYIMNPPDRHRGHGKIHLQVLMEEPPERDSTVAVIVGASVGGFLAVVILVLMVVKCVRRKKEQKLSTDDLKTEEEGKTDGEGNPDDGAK
Sequence (Q07699 whole entry, further chain): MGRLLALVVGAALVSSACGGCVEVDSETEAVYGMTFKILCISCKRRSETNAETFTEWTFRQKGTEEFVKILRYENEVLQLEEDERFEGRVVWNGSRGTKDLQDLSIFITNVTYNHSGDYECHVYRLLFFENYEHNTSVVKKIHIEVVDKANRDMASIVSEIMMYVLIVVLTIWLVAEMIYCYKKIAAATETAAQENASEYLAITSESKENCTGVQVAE
experiment.description: Inhibition of human Nav1.7/beta1/2 transfected in HEK293-A cells assessed as inhibition of channel current incubated for 5.5 mins by high-throughput electrophysiology system analysis
Readings of log10 of IC50 for the listed molecules
// stored as log10 of IC50 expressed in nM

> print(dat)
                                 smiles.str  reported.property  obs.value
1  Cc1cn(-c2ccc(C(F)(F)F)nc2)c2ccc(C(=O)NS(=O)(=O)C3CC3)cc12      log10 of IC50       1.77
2  C[C@@H](c1cc(Cl)cc(Cl)c1)N1CCC(COc2cc(F)c(C(=O)NS(C)(=O)=O)cc2C2CC2)CC1      log10 of IC50      -0.22
3  CS(=O)(=O)NC(=O)c1cc(Cl)c(Oc2cnc(C3CC3)c(Cl)c2)cc1F      log10 of IC50       1.72
4  Cc1cn(-c2ccccc2F)c2ccc(C(=O)NS(C)(=O)=O)cc12      log10 of IC50       3.77
5  Cc1cn(-c2cccc(F)c2)c2ccc(C(=O)NS(=O)(=O)C3CC3)cc12      log10 of IC50       1.51

Okay, next one:
Can you share its log10 of IC50? I mean this molecule: Cc1cn(-c2cccnc2)c2ccc(C(=O)NS(=O)(=O)C3CC3)cc12
3.20

* * *

tested.system: hERG (KCNH2) (Homo sapiens)
Sequence (Q12809 whole entry): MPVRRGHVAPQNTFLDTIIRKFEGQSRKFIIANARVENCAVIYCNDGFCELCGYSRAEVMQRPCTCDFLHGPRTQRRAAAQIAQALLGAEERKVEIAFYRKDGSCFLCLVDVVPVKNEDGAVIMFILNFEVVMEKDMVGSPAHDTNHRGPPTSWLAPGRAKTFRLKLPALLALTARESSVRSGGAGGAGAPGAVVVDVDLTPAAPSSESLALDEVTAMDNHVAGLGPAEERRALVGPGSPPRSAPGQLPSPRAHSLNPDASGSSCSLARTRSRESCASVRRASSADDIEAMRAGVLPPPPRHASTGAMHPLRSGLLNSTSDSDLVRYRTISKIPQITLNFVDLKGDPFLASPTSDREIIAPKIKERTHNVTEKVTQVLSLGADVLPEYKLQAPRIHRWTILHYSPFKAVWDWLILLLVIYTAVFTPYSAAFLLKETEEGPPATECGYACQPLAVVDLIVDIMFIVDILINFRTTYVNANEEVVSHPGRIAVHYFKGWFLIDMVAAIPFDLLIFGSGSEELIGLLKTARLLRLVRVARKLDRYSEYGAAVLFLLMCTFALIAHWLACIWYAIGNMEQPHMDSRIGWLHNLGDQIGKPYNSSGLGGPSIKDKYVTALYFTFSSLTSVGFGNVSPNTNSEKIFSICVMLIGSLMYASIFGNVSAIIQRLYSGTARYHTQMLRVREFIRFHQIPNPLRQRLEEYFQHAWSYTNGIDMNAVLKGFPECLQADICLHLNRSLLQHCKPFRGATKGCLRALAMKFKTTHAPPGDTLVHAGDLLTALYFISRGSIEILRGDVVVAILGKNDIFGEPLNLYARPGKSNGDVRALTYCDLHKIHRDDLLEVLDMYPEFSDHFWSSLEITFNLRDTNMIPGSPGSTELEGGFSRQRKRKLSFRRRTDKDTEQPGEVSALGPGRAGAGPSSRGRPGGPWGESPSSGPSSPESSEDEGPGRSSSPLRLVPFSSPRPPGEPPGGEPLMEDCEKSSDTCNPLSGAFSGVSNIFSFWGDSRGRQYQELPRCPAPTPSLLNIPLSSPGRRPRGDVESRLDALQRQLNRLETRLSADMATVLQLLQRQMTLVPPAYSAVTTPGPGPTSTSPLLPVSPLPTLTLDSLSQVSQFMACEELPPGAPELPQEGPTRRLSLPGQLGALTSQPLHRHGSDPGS
experiment.description: Inhibition of hERG at 100 uM
Type: toxicity
reported.property: inhibition at 100 µM (%)
Form entry: value (%) — number only.

See these solved cases before continuing.
> print(dat)
                                 smiles.str                tested.system  unit.annotation  obs.value
1  Cc1cn(-c2cncc(C(F)(F)F)c2)c2cc(F)c(C(=O)NS(=O)(=O)C3CC3)cc12  hERG (KCNH2) (Homo sapiens)                %       -2.9
2  Cc1cn(-c2cccc(Cl)c2)c2ccc(C(=O)NS(C)(=O)=O)cc12  hERG (KCNH2) (Homo sapiens)                %       43.5
3  Cc1cn(-c2cncc(F)c2)c2ccc(C(=O)NS(=O)(=O)C3CC3)cc12  hERG (KCNH2) (Homo sapiens)                %       -1.1

Fill in the blank: the reported inhibition at 100 µM of Cc1cn(-c2cccc(C(F)(F)F)c2)c2cc(F)c(C(=O)NS(C)(=O)=O)cc12 is ____.
54.8

Proceed to Cc1cn(-c2cncc(C(F)(F)F)c2)c2ccc(C(=O)NS(=O)(=O)C3CC3)cc12
6.9

Same thing, different molecule: Cc1cn(-c2cccc(F)c2)c2ccc(C(=O)NS(=O)(=O)C3CC3)cc12
42.1

Another molecule to check: Cc1cn(-c2cccnc2)c2ccc(C(=O)NS(C)(=O)=O)cc12
-0.1

Also need Cc1cn(-c2ccc(F)cc2)c2ccc(C(=O)NS(C)(=O)=O)cc12 , thanks.
5.6

Would you kindly repeat that for Cc1cn(-c2ccc(C(F)(F)F)nc2)c2ccc(C(=O)NS(=O)(=O)C3CC3)cc12 ?
21

Now give it for Cc1cn(-c2cccc(F)c2)c2cc(F)c(C(=O)NS(C)(=O)=O)cc12 too.
15.6
